test_target: human 8-oxoguanine DNA glycosylase (OGG1) (Homo sapiens, UniProt O15527)
Sequence (O15527 whole entry): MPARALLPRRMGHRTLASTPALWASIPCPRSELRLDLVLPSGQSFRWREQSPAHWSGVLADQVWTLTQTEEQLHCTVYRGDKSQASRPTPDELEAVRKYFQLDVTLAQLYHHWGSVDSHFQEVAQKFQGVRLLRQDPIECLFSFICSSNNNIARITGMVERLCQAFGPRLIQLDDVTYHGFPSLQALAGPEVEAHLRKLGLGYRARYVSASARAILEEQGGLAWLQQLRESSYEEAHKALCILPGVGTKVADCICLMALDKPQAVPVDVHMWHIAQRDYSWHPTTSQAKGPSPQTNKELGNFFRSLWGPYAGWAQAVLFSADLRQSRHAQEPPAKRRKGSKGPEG
Type: biochemical
particulars: read-out: Ki (affinity for OGG1)
I'd appreciate it if you could supply Ki values for the items below.
API: value field is a number in µM; no unit string.

Per the record, dCdp(TCTCCCTTCGCTCCTTTCCTCT) (5'-dC with phosphate prefix in name, chemistry otherwise not given here) [G11] has Ki of 20

Per the record, dCdp(TCTCCCTTCXCTCCTTTCCTCT) [OG11] has Ki of 0.08

Attribution: paper PMC3113562
